tested on: SK-LMS-1 (Other Solid Carcinomas); assay: combination Emax (second highest fraction inhibited in the dose matrix, 72 h); higher = more inhibition; extreme values may be limits of the assay
Please respond with reported combination Emax for every item in the list.
Just the number, please.

# returns recorded combination Emax (system: SK-LMS-1 (Other Solid Carcinomas)) for N#Cc1cnc(Nc2cc(NC[C@H]3CNCCO3)c(C(F)(F)F)cn2)cn1 [SRA737] + O=c1[nH]cc(F)c(=O)[nH]1 [5-Fluorouracil] (first compound max 10 µM, 7x7, partner max 20 µM)
0.268

Proceed to Cc1c2c(nn1C)CSCc1cc(n(C)n1)CSc1cc(c3ccccc3c1)OCCCc1c(C(=O)O)n(C)c3c-2c(Cl)ccc13 [AZD5991] + CS(=O)(=O)CCNCc1ccc(-c2ccc3ncnc(Nc4ccc(OCc5cccc(F)c5)c(Cl)c4)c3c2)o1 [Lapatinib] (first compound max 1 µM, 7x7, partner max 10 µM)
0.265

Request: Cn1cnc2c(F)c(Nc3ccc(Br)cc3Cl)c(C(=O)NOCCO)cc21 [Selumetinib] + C=CCn1c(=O)c2cnc(Nc3ccc(N4CCN(C)CC4)cc3)nc2n1-c1cccc(C(C)(C)O)n1 [AZD1775] (first compound max 10 µM, partner max 1 µM)
0.599

Another compound: CC1(C)CCC(CN2CCN(c3ccc(C(=O)NS(=O)(=O)c4ccc(NCC5CCOCC5)c([N+](=O)[O-])c4)c(Oc4cnc5[nH]ccc5c4)c3)CC2)=C(c2ccc(Cl)cc2)C1 [Venetoclax] + C[C@@H]1COCCN1C2=NC(=NC(=C2)C3(CC3)[S@](=N)(=O)C)C4=C5C=CNC5=NC=C4 [AZD6738] (first compound max 1 µM, 7x7, partner max 10 µM)
0.548
